# Cond: in acetone, 293.15 K
Readout type: solubility (mole fraction)

Please supply the value of reported solubility (mole fraction) for the item CC(C)C[C@H](NC(=O)OCC1c2ccccc2-c2ccccc21)C(=O)O 0.0838

###

# Cond: in methanol, 283.15 K
Readout type: solubility (mole fraction)
Numbers only.

Return solubility (mole fraction) for the following molecule: CC(C)C[C@H](NC(=O)OCC1c2ccccc2-c2ccccc21)C(=O)O 0.0288

###

# Cond: in ethyl acetate, 313.15 K
Readout type: solubility (mole fraction)
Numbers only.

Supply measured solubility (mole fraction) of CC(C)C[C@H](NC(=O)OCC1c2ccccc2-c2ccccc21)C(=O)O in your reply. 0.0862

###

# Cond: in ethyl acetate, 308.15 K
Readout type: solubility (mole fraction)
Give bare numbers.

Complete the entry with solubility (mole fraction) for CC(C)C[C@H](NC(=O)OCC1c2ccccc2-c2ccccc21)C(=O)O 0.0782

###

# Cond: in methanol, 288.15 K
Readout type: solubility (mole fraction)
Numbers only.

Using known records, supply solubility (mole fraction) for CC(C)C[C@H](NC(=O)OCC1c2ccccc2-c2ccccc21)C(=O)O 0.033

###

# Cond: in methanol, 303.15 K
Readout type: solubility (mole fraction)
Answers are plain numbers.

Item CC(C)C[C@H](NC(=O)OCC1c2ccccc2-c2ccccc21)C(=O)O : provide solubility (mole fraction) 0.0543

###

# Cond: in isopropanol, 313.15 K
Readout type: solubility (mole fraction)
Answers are plain numbers.

Note down solubility (mole fraction) recorded for CC(C)C[C@H](NC(=O)OCC1c2ccccc2-c2ccccc21)C(=O)O 0.0551

###

# Cond: in acetone, 318.15 K
Readout type: solubility (mole fraction)
Answers are plain numbers.

For the compound CC(C)C[C@H](NC(=O)OCC1c2ccccc2-c2ccccc21)C(=O)O , report solubility (mole fraction). 0.131

###

# Cond: in methyl acetate, 313.15 K
Readout type: solubility (mole fraction)
Give bare numbers.

Tell me its solubility (mole fraction) given CC(C)C[C@H](NC(=O)OCC1c2ccccc2-c2ccccc21)C(=O)O as the entry. 0.0554

###

# Cond: in ethanol, 298.15 K
Readout type: solubility (mole fraction)
Answers are plain numbers.

Supply measured solubility (mole fraction) of CC(C)C[C@H](NC(=O)OCC1c2ccccc2-c2ccccc21)C(=O)O in your reply. 0.0379

###

# Cond: in ethanol, 313.15 K
Readout type: solubility (mole fraction)
Give bare numbers.

Report solubility (mole fraction) for CC(C)C[C@H](NC(=O)OCC1c2ccccc2-c2ccccc21)C(=O)O 0.0614
